Recorded measurements of MIC, one per entry
# Tested on: H. influenzae ATCC 49247

# compound, target-or-test-system, bound-sign, MIC (µg/mL)
records = [
    ("CC1=C\\[C@@H](O)CC(=O)Cc2nc(co2)C(=O)N2CCC[C@@H]2C(=O)O[C@H]([C@H](C)COC(=O)Nc2ccccn2)[C@H](C)/C=C/C(=O)NC\\C=C\\1", "H. influenzae ATCC 49247", "=", 16),
    ("CC1=C\\[C@@H](O)CC(=O)Cc2nc(co2)C(=O)N2CCC[C@@H]2C(=O)O[C@H]([C@H](C)CF)[C@H](C)/C=C/C(=O)NC\\C=C\\1", "H. influenzae ATCC 49247", "=", 8),
    ("CC1=C\\[C@@H](O)CC(=O)Cc2nc(co2)C(=O)N2CCC[C@@H]2C(=O)O[C@H]([C@H](C)COC(=O)Nc2cccnc2)[C@H](C)/C=C/C(=O)NC\\C=C\\1", "H. influenzae ATCC 49247", "=", 32),
    ("CC1=C\\[C@@H](O)C[C@@H](F)Cc2nc(co2)C(=O)N2CCC[C@@H]2C(=O)O[C@H](C(C)C)[C@H](C)/C=C/C(=O)NC\\C=C\\1 [flopristin, reference compound]", "H. influenzae ATCC 49247", "=", 0.25),
    ("CC1=C\\[C@@H](O)CC(=O)Cc2nc(co2)C(=O)N[C@H](Cc2c[nH]c3ccccc23)C(=O)O[C@H](C(C)C)[C@H](C)/C=C/C(=O)NC\\C=C\\1", "H. influenzae ATCC 49247", ">", 64),
]

---

# System: H. influenzae ATCC 49247
observation-type: log10(MIC) (log10 of the value in µg/mL)

# compound, target-or-test-system, log10(MIC)
records = [
    ("CC1=C\\[C@@H](O)CC(=O)Cc2nc(co2)C(=O)N2CCC[C@@H]2C(=O)O[C@H]([C@H](C)COC(=O)Nc2cc3ccccc3cn2)[C@H](C)/C=C/C(=O)NC\\C=C\\1", "H. influenzae ATCC 49247", 0.30),
    ("CC1=C\\[C@@H](O)CC(=O)Cc2nc(co2)C(=O)N2CCC[C@@H]2C(=O)O[C@H]([C@H](C)COC(=O)Nc2ccc(C)cc2)[C@H](C)/C=C/C(=O)NC\\C=C\\1", "H. influenzae ATCC 49247", 1.20),
    ("CC1=C\\[C@@H](O)CC(=O)Cc2nc(co2)C(=O)N2CCC[C@@H]2C(=O)O[C@H]([C@H](C)COC(=O)Nc2ccccc2)[C@H](C)/C=C/C(=O)NC\\C=C\\1", "H. influenzae ATCC 49247", 1.20),
    ("CC1=C\\[C@@H](O)CC(=O)Cc2nc(co2)C(=O)N2CCC[C@@H]2C(=O)O[C@H]([C@@H](C)COC(=O)Nc2ccn(C)n2)[C@H](C)/C=C/C(=O)NC\\C=C\\1", "H. influenzae ATCC 49247", 1.81),
    ("CC1=C\\[C@@H](O)CC(=O)Cc2nc(co2)C(=O)N2CCC[C@@H]2C(=O)O[C@H]([C@H](C)CO)[C@H](C)/C=C/C(=O)NC\\C=C\\1", "H. influenzae ATCC 49247", 1.51),
    ("CC1=C\\[C@@H](O)CC(=O)Cc2nc(co2)C(=O)N2CCC[C@@H]2C(=O)O[C@H]([C@@H](C)CO)[C@H](C)/C=C/C(=O)NC\\C=C\\1", "H. influenzae ATCC 49247", 1.81),
    ("CC1=C\\[C@@H](O)CC(=O)Cc2nc(co2)C(=O)N2CCC[C@@H]2C(=O)O[C@H]([C@@H](C)COC(=O)Nc2cnccn2)[C@H](C)/C=C/C(=O)NC\\C=C\\1", "H. influenzae ATCC 49247", 1.81),
    ("CC1=C\\[C@@H](O)CC(=O)Cc2nc(co2)C(=O)N2CCC[C@@H]2C(=O)O[C@H]([C@@H](C)COC(=O)Nc2coc(C)n2)[C@H](C)/C=C/C(=O)NC\\C=C\\1", "H. influenzae ATCC 49247", 1.81),
    ("CC1=C\\[C@@H](O)CC(=O)Cc2nc(co2)C(=O)N[C@H](C)C(=O)O[C@H](C(C)C)[C@H](C)/C=C/C(=O)NC\\C=C\\1 [madumycin I, Madumycin I, reference compound]", "H. influenzae ATCC 49247", 0.90),
    ("CC1=C\\[C@@H](O)CC(=O)Cc2nc(co2)C(=O)N2CCC[C@@H]2C(=O)O[C@H]([C@H](C)COC(=O)Nc2ccn(C)n2)[C@H](C)/C=C/C(=O)NC\\C=C\\1", "H. influenzae ATCC 49247", 1.51),
    ("CC1=C\\[C@@H](O)CC(=O)Cc2nc(co2)C(=O)N2CCC[C@@H]2C(=O)O[C@H]([C@H](C)COC(=O)Nc2csc(C)n2)[C@H](C)/C=C/C(=O)NC\\C=C\\1", "H. influenzae ATCC 49247", 1.20),
    ("CC1=C\\[C@@H](O)CC(=O)Cc2nc(co2)C(=O)N2CCC[C@@H]2C(=O)O[C@H]([C@@H](C)COC(=O)Nc2cc(C)on2)[C@H](C)/C=C/C(=O)NC\\C=C\\1", "H. influenzae ATCC 49247", 1.81),
    ("COc1ccc(NC(=O)OC[C@@H](C)[C@H]2OC(=O)[C@H]3CCCN3C(=O)c3coc(n3)CC(=O)C[C@H](O)/C=C(C)/C=C/CNC(=O)/C=C/[C@H]2C)cc1", "H. influenzae ATCC 49247", 1.20),
    ("CC1=C\\[C@@H](O)CC(=O)Cc2nc(co2)C(=O)N2CCC[C@@H]2C(=O)O[C@H]([C@@H](C)COC(=O)Nc2ccccc2)[C@H](C)/C=C/C(=O)NC\\C=C\\1", "H. influenzae ATCC 49247", 1.51),
    ("CC1=C\\[C@@H](O)CC(=O)Cc2nc(co2)C(=O)N2CCC[C@@H]2C(=O)O[C@H]([C@H](C)COC(=O)Nc2cnccn2)[C@H](C)/C=C/C(=O)NC\\C=C\\1", "H. influenzae ATCC 49247", 1.20),
]

---

S. pneumoniae MIC data
observation-type: MIC (µg/mL)

# compound, target-or-test-system, bound-sign, result-number
records = [
    ("CC1=C\\[C@@H](O)CC(=O)Cc2nc(co2)C(=O)N2CCC[C@@H]2C(=O)O[C@H]([C@@H](C)CN2CCOCC2)[C@H](C)/C=C/C(=O)NC\\C=C\\1 [SA0110161]", "S. pneumoniae", ">", 64),
    ("CC1=C\\[C@@H](O)CC(=O)Cc2nc(co2)C(=O)N2CCC[C@@H]2C(=O)O[C@H]([C@H](C)CF)[C@H](C)/C=C/C(=O)NC\\C=C\\1 [SA0110273]", "S. pneumoniae", "=", 16),
    ("CC1=C\\[C@@H](O)CC(N)Cc2nc(cs2)C(=O)N2CCC[C@@H]2C(=O)O[C@H](C(C)C)[C@H](C)/C=C/C(=O)NC\\C=C\\1 (stereo partly drawn) [SA0110268]", "S. pneumoniae", "=", 32),
    ("CC1=C\\[C@@H](O)CC(=O)Cc2nc(co2)C(=O)N2CCC[C@@H]2C(=O)O[C@H]([C@@H](C)COC(=O)Nc2cc3ccccc3cn2)[C@H](C)/C=C/C(=O)NC\\C=C\\1 [SA0110118]", "S. pneumoniae", "=", 2),
    ("CC1=C\\[C@@H](O)CC(=O)Cc2nc(co2)C(=O)N2CCC[C@@H]2C(=O)O[C@H]([C@H](C)COC(=O)Nc2cc3ccccc3cn2)[C@H](C)/C=C/C(=O)NC\\C=C\\1 [SA0110224]", "S. pneumoniae", "=", 16),
    ("CC1=C\\[C@@H](O)CC(=O)Cc2nc(co2)C(=O)N2CCC[C@@H]2C(=O)O[C@H]([C@H](C)COC(=O)Nc2csc(C)n2)[C@H](C)/C=C/C(=O)NC\\C=C\\1 [SA0110214]", "S. pneumoniae", "=", 32),
    ("CC1=C\\[C@@H](O)CC(=O)Cc2nc(co2)C(=O)N[C@H](Cc2ccccc2)C(=O)O[C@H](C(C)C)[C@H](C)/C=C/C(=O)NC\\C=C\\1 [SA0202061]", "S. pneumoniae", "=", 16),
    ("CC1=C\\[C@@H](O)CC(=O)Cc2nc(co2)C(=O)N2CCC[C@@H]2C(=O)O[C@H]([C@H](C)COC(=O)Nc2ccn(C)n2)[C@H](C)/C=C/C(=O)NC\\C=C\\1 [SA0110218]", "S. pneumoniae", ">", 64),
    ("CC1=C\\[C@@H](O)CC(=O)Cc2nc(co2)C(=O)N2CCC[C@@H]2C(=O)O[C@H]([C@H](C)COC(=O)Nc2ccccc2)[C@H](C)/C=C/C(=O)NC\\C=C\\1 [SA0110196]", "S. pneumoniae", "=", 32),
    ("CC1=C\\[C@@H](O)CC(=O)Cc2nc(co2)C(=O)N2CCC[C@@H]2C(=O)O[C@H]([C@@H](C)COC(=O)Nc2ccn(C)n2)[C@H](C)/C=C/C(=O)NC\\C=C\\1 [SA0110113]", "S. pneumoniae", "=", 8),
    ("CC1=C\\[C@@H](O)C[C@@H](O)Cc2nc(co2)C(=O)N[C@H](C)C(=O)O[C@H](C(C)C)[C@H](C)/C=C/C(=O)NC\\C=C\\1 [madumycin II, Madumycin II, reference compound]", "S. pneumoniae", "=", 4),
    ("CC1=C\\[C@@H](O)CC(=O)Cc2nc(co2)C(=O)N2CCC[C@@H]2C(=O)O[C@H]([C@@H](C)COC(=O)Nc2ccc3ccccc3n2)[C@H](C)/C=C/C(=O)NC\\C=C\\1 [SA0110117]", "S. pneumoniae", "=", 4),
    ("CC1=C\\[C@@H](O)CC(=O)Cc2nc(co2)C(=O)N2CCC[C@@H]2C(=O)O[C@H]([C@@H](C)COC(=O)Nc2ccc(Br)nc2)[C@H](C)/C=C/C(=O)NC\\C=C\\1 [SA0110082]", "S. pneumoniae", "=", 8),
    ("CC1=C\\[C@@H](O)CC(=O)Cc2nc(co2)C(=O)N2CCC[C@@H]2C(=O)O[C@H]([C@H](C)COC(=O)Nc2cc(C)on2)[C@H](C)/C=C/C(=O)NC\\C=C\\1 [SA0110225]", "S. pneumoniae", "=", 32),
    ("CC1=C\\[C@@H](O)CC(=O)Cc2nc(co2)C(=O)N[C@H](CCCCN)C(=O)O[C@H](C(C)C)[C@H](C)/C=C/C(=O)NC\\C=C\\1 [SA0202094]", "S. pneumoniae", ">", 64),
    ("CC1=C\\[C@@H](O)CC(=O)Cc2nc(co2)C(=O)N2CCC[C@@H]2C(=O)O[C@H]([C@H](C)COC(=O)Nc2ccnc(Br)c2)[C@H](C)/C=C/C(=O)NC\\C=C\\1 [SA0110206]", "S. pneumoniae", "=", 8),
    ("CC1=C\\[C@@H](O)C[C@@H](O)Cc2nc(cs2)C(=O)N2CCC[C@@H]2C(=O)O[C@H](C(C)C)[C@H](C)/C=C/C(=O)NC\\C=C\\1 [SA0110264]", "S. pneumoniae", "=", 2),
    ("CC1=C\\[C@@H](O)CC(=O)Cc2nc(co2)C(=O)N2CCC[C@@H]2C(=O)O[C@H]([C@@H](C)CN2CCN(C)CC2)[C@H](C)/C=C/C(=O)NC\\C=C\\1 [SA0110241]", "S. pneumoniae", ">", 64),
    ("CC1=C\\[C@@H](O)CC(=O)Cc2nc(co2)C(=O)N2CCC[C@@H]2C(=O)O[C@H]([C@@H](C)COC(=O)Nc2cc(C)on2)[C@H](C)/C=C/C(=O)NC\\C=C\\1 [SA0110115]", "S. pneumoniae", "=", 16),
    ("CC1=C\\[C@@H](O)CC(=O)Cc2nc(co2)C(=O)N2CCC[C@@H]2C(=O)O[C@H]([C@H](C)COC(=O)Nc2ccc3ccccc3n2)[C@H](C)/C=C/C(=O)NC\\C=C\\1 [SA0110223]", "S. pneumoniae", "=", 32),
    ("CC1=C\\[C@@H](O)CC(=O)Cc2nc(co2)C(=O)N2CCC[C@@H]2C(=O)O[C@H]([C@H](C)COC(=O)Nc2ccc(OC(F)(F)F)cc2)[C@H](C)/C=C/C(=O)NC\\C=C\\1 [SA0110195]", "S. pneumoniae", ">", 64),
]
